biological target: Cytochrome P450 3A4 (Homo sapiens); assay: qHTS Assay for Inhibitors and Substrates of Cytochrome P450 3A4 (AID 884); conditions: recombinant CYP3A4, Luciferin-PPXE luminescence; series mostly up to 57.1 µM; note: nearly all actives have a fitted effect of over 50% in size; note: potency is the fitted concentration of half-maximal effect
Inconclusive results are not listed. The source made the active and inactive calls. Calls come from the whole dose curve; as a rule, active = well fitted inhibition curve with a large enough effect; inconclusive = small, poorly fitted or top-dose-only effect; inactive = no such curve, though single readings can be large or run the other way.
property label: Potency

CC(=O)OC1CC(OC(C)=O)[C@]2(C)C(CC(OC(C)=O)[C@]3(C)C2CC[C@@]2(C)C(c4ccoc4)C(=O)C4O[C@]432)C1(C)C (stereo partly specified) :: 3.98 µM (active)
C[C@]12CCC(=O)C=C1CCc1ccc(O)cc12 :: 25.1 µM (active)
ClC1=C(Cl)C2(Cl)C3C(Cl)C=CC3C1(Cl)C2(Cl)Cl (stereo unspecified) :: 10 µM (active)
O=C(O)COc1ccc(Cl)cc1Cl :: inactive
CNC(=O)Oc1cccc2c1OC(C)(C)O2 :: inactive

Please look at the following compound next.
Need Potency of ClC(Cl)=C(Cl)Cl , thanks.
inactive
